- TESTED TARGET: Collagenase 3 (Homo sapiens, UniProt P45452)
MEASURE NAME: pIC50
Answers are plain numbers, as −log10 of the molar value.

# input Identify measured pIC50 obtained with Collagenase 3 (Homo sapiens, UniProt P45452) for O=C(O)c1csc(CN(Cc2ccc(OCc3ccccc3)cc2)CC(c2ccccc2)c2ccccc2)n1 .
# output 5.75

----------
Please provide measured pIC50 for the entries that follow.
- TESTED TARGET: Matrix metalloproteinase-9 (Homo sapiens, UniProt P14780)
- Sequence (P14780 whole entry): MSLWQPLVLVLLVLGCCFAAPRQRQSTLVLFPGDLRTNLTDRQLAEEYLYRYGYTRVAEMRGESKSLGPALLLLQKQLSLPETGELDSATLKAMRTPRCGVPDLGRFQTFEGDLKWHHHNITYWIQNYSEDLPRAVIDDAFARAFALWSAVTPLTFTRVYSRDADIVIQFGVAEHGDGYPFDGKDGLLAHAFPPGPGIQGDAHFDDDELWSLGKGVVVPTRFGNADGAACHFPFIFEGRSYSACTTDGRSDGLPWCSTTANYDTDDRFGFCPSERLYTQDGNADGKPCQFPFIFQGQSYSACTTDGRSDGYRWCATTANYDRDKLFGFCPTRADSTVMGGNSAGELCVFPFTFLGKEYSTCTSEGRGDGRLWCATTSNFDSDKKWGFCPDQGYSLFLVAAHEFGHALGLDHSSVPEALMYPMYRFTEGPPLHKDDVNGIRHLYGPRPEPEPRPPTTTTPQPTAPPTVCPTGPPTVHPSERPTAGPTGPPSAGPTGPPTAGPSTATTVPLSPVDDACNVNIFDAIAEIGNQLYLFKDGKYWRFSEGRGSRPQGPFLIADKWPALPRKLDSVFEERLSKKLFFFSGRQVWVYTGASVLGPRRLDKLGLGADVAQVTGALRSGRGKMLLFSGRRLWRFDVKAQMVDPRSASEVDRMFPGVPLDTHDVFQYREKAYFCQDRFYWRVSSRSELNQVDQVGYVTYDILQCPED
- ASSAY METHOD TEXT: Activity Assay: Stock solution of substrate (Mca-Lys-Pro-Leu-Gly-Leu-Dpa-Ala-Arg-NH2) was prepared in DMSO at a concentration of 6 mM. Assays were performed in an assay buffer (50 mM Tris pH 7.5, 300 mM NaCl, 10 uM ZnSO4, 5 mM CaCl2, 0.005% Brij-35). The final DMSO concentration in all assays was 1.0%. […] The assays were carried out at 37° C. The fluorescence changes, resulting from the substrate cleavage, were detected using excitation at 340 nm and emission wavelength of 405 nm using a Wallac 1420 Microplate Reader. The reaction mixtures were preincubated with the inhibitors for 30 minutes. The reactions were started by the addition of MMP substrate, and the fluorescence intensity changes were measured after 60 minutes. The obtained fluorescence values were normalized and % inhibition values calculated. Dose response curves were determined from 6 concentration points using three fold dilution steps, each concentration point was determined in dupllicate. IC50 values were calculated from the dose response curves.
Numbers only, as −log10 of the molar value.

Please look at the items below and tell me pIC50 for each one, in order.
1. O=C(O)c1csc(CN(Cc2ccc(OCc3ccccc3)cc2)CC(c2ccccc2)c2ccccc2)n1
2. CCOC(=O)c1csc(CN(Cc2ccc(F)cc2)Cc2ccc(OCc3ccccc3)cc2)n1

# output
1. 5.00
2. 3.85
